assay: xn = mol fraction of the nth substance listed, in the solute-free solvent; settings: 308.15 K; x2 = 0.7297
Items are presented alongside their recorded solubility (g/100 g solution).
Lab note: jot the number down without any unit.

// below: answered compounds
CS(=O)(=O)c1ccc(C(O)C(CF)NC(=O)C(Cl)Cl)cc1 (centres undefined) + CC(C)O + O ... 1.47
O=[N+]([O-])c1cc[nH]n1 + CCCO + O ... 5.23
CC(=O)Nc1ccc(OC(=O)c2ccccc2OC(C)=O)cc1 + CC(C)O + O ... 0.412

Continue with the next compound.
Output measured solubility (g/100 g solution) for this item: COC(=O)C1=C(C)NC(C)=C(C(=O)OCC(C)C)C1c1ccccc1[N+](=O)[O-] (centres undefined) + CCCO + O
7.42

---

Items are presented alongside their recorded solubility (g/100 g solution).
assay: xn = mol fraction of the nth substance listed, in the solute-free solvent; details: 288.15 K; x2 = 0.9
Lab note: jot the number down without any unit.

CC1(C)SC2C(NC(=O)C(NC(=O)N3CCNC3=O)c3ccccc3)C(=O)N2C1C(=O)O (stereo not given) + CCO + CC(C)O ... 0.748
CCOC(=O)C1=CC2(CC)CCCN3CCc4c(n1c1ccccc41)C32 (stereo not given) + CCO + O ... 0.466
CN1CCN(C(=O)OC2c3nccnc3C(=O)N2c2ccc(Cl)cn2)CC1 (stereo not given) + CC(C)=O + O ... 1.48

Output measured solubility (g/100 g solution) for this item: O=c1[nH]cc(F)c(=O)[nH]1 + CO + C1CCOC1
0.665

Output measured solubility (g/100 g solution) for this item: CN1CCN(C(=O)OC2c3nccnc3C(=O)N2c2ccc(Cl)cn2)CC1 (stereo not given) + CC#N + O
2.87

---

test: xn = mol fraction of the nth substance listed, in the solute-free solvent; settings: 293.15 K; x2 = 0.6101
Items are presented alongside their recorded solubility (g/100 g solution).
Lab note: jot the number down without any unit.

O=[N+]([O-])c1cc[nH]n1 + CCO + O ... 3.52
CS(=O)(=O)c1ccc(C(O)C(CF)NC(=O)C(Cl)Cl)cc1 (centres undefined) + CCO + O ... 1.94

Output measured solubility (g/100 g solution) for this item: CC(=O)Nc1ccc(OC(=O)c2ccccc2OC(C)=O)cc1 + CCO + O
0.306

Output measured solubility (g/100 g solution) for this item: COC(=O)C1=C(C)NC(C)=C(C(=O)OCC(C)C)C1c1ccccc1[N+](=O)[O-] (centres undefined) + CCO + O
4.12

---

assay: xn = mol fraction of the nth substance listed, in the solute-free solvent; conditions: 318.15 K; x2 = 0.5
measured.endpoint: solubility (g/100 g solution)
Lab note: jot the number down without any unit.

// below: answered molecules
CCCCN1CCCCC1C(=O)Nc1c(C)cccc1C.Cl.O (centres undefined) + CCO + O ... 11.3
CN1CCN(C(=O)OC2c3nccnc3C(=O)N2c2ccc(Cl)cn2)CC1 (centres undefined) + CC#N + O ... 4.26
O=c1ccc2ccccc2o1 + CO + O ... 59.6
CN1CCN(C(=O)OC2c3nccnc3C(=O)N2c2ccc(Cl)cn2)CC1 (centres undefined) + CCO + O ... 1.51
CC1(C)SC2C(NC(=O)C(NC(=O)N3CCNC3=O)c3ccccc3)C(=O)N2C1C(=O)O (centres undefined) + CCO + CC(C)O ... 0.78
CN1CCN(C(=O)OC2c3nccnc3C(=O)N2c2ccc(Cl)cn2)CC1 (centres undefined) + CC(C)=O + O ... 1.35
CCCCN1CCCCC1C(=O)Nc1c(C)cccc1C.Cl.O (centres undefined) + CO + O ... 18.7
CN1CCN(C(=O)OC2c3nccnc3C(=O)N2c2ccc(Cl)cn2)CC1 (centres undefined) + C1CCOC1 + O ... 3.21

Continue with the next molecule.
Output measured solubility (g/100 g solution) for this item: CCOC(=O)C1=CC2(CC)CCCN3CCc4c(n1c1ccccc41)C32 (centres undefined) + CCO + O
0.921
